// data source = patent US20180339017A1

Measured Target: human glucagon receptor (human, UniProt P47871 26-477)
Sequence (P47871 26-477): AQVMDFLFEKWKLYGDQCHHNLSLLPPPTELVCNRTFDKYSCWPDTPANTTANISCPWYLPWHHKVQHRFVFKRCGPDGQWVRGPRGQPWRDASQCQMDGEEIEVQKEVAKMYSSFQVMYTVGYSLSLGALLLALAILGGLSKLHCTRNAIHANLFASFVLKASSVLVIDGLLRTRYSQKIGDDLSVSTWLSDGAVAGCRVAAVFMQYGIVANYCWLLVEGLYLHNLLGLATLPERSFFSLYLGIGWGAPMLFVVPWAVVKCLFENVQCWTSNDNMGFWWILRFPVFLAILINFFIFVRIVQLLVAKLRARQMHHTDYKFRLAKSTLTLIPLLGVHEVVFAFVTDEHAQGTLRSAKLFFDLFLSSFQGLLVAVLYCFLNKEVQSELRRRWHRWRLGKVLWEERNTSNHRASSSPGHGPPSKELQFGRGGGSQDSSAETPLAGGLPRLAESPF
Measurement Protocol: cell-based or functional assay
No end group written: not given here.
Readout Label: EC50 hGCGR (cAMP activity assay) (nM)

HSQGTFFSDYSKYLDSRRAQDFVQWLLET-NH2 [PD58] :: 0.03
HSQGTFTSDYSKYLDSRRAQDFVQWLINY-NH2 [PD31] :: 0.06
HSQGTFTSDYSKYLDSRMAYDFVQWLMNT-NH2 [PD56] :: 0.08
HSQGTFTSDYSKYLDSRRAQDFVDWLINS-NH2 [PD50] :: 0.02
HSQGTFTSDYSKYLDELRAYDFVQWLMNT-NH2 [PD27] :: 0.05
HSQGIFFSDYSKYLDSRRAQDFVQWLMNT-NH2 [PD52] :: 0.03
HSQGTFTSDYSKYLDSRRAHDFVQWLLNT-NH2 [PD29] :: 0.02
HSQGTFTSDYSKYLDSRRAQDFVQWLLDS-NH2 [PD59] :: 0.02
HSQGTFTSDYSKYLDSLMAQDFVQWLMST-NH2 [PD22] :: 0.02
HSQGTFFSDYSHWLDSRRAQDFVQWLMNT-NH2 [PD43] :: 0.03
HSQGTFTSDYSKYLDSIRAQDFVQWLMDT-NH2 [PD36] :: 0.04
HSQGTFTSDYSKYLDSRRAQDFVDWLLNA-NH2 [PD48] :: 0.07
HSHGTFTSDYSKYLDSRRAQDFVQWLMTT-NH2 [PD51] :: 0.03
